Every entry's value here was drawn from ChEMBL document CHEMBL1641414.

half-life by entry:
# METHOD_SUMMARY: Half life in mouse liver microsome
# Type: ADME
# RECORDED_CONDITIONS: liver microsomes
Your answer is read as h, so omit the unit and give the number.

Q. Entry CN[C@H]1CCc2ccccc2[C@@H]1c1ccc(Cl)c(Cl)c1 has what half-life?
A. 1.68

Q. Entry CN[C@@H]1Cc2ccccc2[C@@H](c2ccc(Cl)c(Cl)c2)C1 has what half-life?
A. 2

Q. Entry CN[C@H]1CCc2ccccc2[C@H]1c1ccc(Cl)c(Cl)c1 has what half-life?
A. 0.1

Q. Entry CNC[C@@H]1Cc2ccccc2[C@@H](c2ccc(Cl)c(Cl)c2)C1 has what half-life?
A. 1.55

Q. Entry CN[C@@H]1CCc2ccccc2[C@H]1c1ccc(Cl)c(Cl)c1 has what half-life?
A. 0.333

Q. Entry CN[C@@H]1CCc2ccccc2[C@@H]1c1ccc(Cl)c(Cl)c1 has what half-life?
A. 0.917

###

# TARGET_OF_ASSAY: Voltage-gated inwardly rectifying potassium channel KCNH2 (Homo sapiens, UniProt Q12809)
# Sequence (Q12809 whole entry): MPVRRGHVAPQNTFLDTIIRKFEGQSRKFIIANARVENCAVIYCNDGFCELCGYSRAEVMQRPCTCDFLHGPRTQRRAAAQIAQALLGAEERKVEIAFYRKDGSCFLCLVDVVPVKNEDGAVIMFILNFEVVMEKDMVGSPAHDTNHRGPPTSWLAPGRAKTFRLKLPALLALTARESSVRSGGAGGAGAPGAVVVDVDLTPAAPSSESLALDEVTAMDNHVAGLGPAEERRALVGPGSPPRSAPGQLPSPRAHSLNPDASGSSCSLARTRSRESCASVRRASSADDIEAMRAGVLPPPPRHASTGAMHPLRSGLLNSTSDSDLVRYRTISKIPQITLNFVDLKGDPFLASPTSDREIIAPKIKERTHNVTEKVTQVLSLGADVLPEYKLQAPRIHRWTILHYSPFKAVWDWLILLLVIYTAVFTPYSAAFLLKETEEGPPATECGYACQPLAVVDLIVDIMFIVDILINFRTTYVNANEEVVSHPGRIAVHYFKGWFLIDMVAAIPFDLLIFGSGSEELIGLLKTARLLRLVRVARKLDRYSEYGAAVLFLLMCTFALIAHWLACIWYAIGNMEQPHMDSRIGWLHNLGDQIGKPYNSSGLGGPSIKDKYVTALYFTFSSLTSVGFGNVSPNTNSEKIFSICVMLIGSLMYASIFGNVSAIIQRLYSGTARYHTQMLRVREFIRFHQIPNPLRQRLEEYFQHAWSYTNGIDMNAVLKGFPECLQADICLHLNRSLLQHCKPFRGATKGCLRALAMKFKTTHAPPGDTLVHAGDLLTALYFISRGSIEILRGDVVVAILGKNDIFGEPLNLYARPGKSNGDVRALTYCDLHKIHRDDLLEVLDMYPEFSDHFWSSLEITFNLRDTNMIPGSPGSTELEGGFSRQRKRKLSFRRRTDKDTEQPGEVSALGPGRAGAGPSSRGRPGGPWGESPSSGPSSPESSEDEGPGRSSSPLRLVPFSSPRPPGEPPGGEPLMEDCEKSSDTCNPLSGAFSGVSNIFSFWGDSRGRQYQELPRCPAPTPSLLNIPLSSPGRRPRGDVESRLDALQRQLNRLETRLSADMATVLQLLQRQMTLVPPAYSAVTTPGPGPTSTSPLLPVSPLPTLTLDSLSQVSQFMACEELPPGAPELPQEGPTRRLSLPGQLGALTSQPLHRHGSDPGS
Mark t only for IC50 values smaller than 2 µM; exact matches and larger values are f.

>>> print(df.to_string())
                            smiles_notation  label
0  CN[C@@H]1Cc2ccccc2[C@@H](c2ccc(Cl)c(Cl)c2)C1      f
1  CN[C@H]1Cc2ccccc2[C@@H](c2ccc(Cl)c(Cl)c2)C1      t
2  NCC[C@H]1Cc2ccccc2[C@@H](c2ccc(Cl)c(Cl)c2)C1      t

Q. Just wondering, is IC50 of CNC[C@H]1Cc2ccccc2[C@H](c2ccc(Cl)c(Cl)c2)C1 below 2 µM?
A. t

Q. Just wondering, is IC50 of CN[C@@H]1Cc2ccccc2[C@H](c2ccc(Cl)c(Cl)c2)C1 below 2 µM?
A. f

Q. Just wondering, is IC50 of NCC[C@@H]1Cc2ccccc2[C@H](c2ccc(Cl)c(Cl)c2)C1 below 2 µM?
A. f

###

# METHOD_SUMMARY: Half life in human liver microsome
# Type: ADME
# RECORDED_CONDITIONS: liver microsomes
RECORDED_ENDPOINT: half-life

Illustrative cases are given below, each with its answer.
In [3]: df
Out[3]:
                            smiles_notation  recorded_endpoint  assay_result
0  CN[C@@H]1CCc2ccccc2[C@@H]1c1ccc(Cl)c(Cl)c1          half-life       0.917 h
1  CNC[C@H]1Cc2ccccc2[C@H](c2ccc(Cl)c(Cl)c2)C1          half-life         > 5 h
2  NCC[C@H]1Cc2ccccc2[C@@H](c2ccc(Cl)c(Cl)c2)C1          half-life         > 5 h
3  CN[C@@H]1Cc2ccccc2[C@@H](c2ccc(Cl)c(Cl)c2)C1          half-life         > 5 h
4  CNC[C@@H]1Cc2ccccc2[C@H](c2ccc(Cl)c(Cl)c2)C1          half-life         > 5 h

Q. Entry CNC[C@@H]1Cc2ccccc2[C@@H](c2ccc(Cl)c(Cl)c2)C1 has what half-life?
A. > 5 h

Q. Entry CN[C@H]1CCc2ccccc2[C@H]1c1ccc(Cl)c(Cl)c1 has what half-life?
A. 0.917 h

Q. Entry CN[C@H]1CCc2ccccc2[C@@H]1c1ccc(Cl)c(Cl)c1 has what half-life?
A. 1.77 h

Q. Entry CN[C@H]1Cc2ccccc2[C@@H](c2ccc(Cl)c(Cl)c2)C1 has what half-life?
A. > 5 h

Q. Entry NCC[C@@H]1Cc2ccccc2[C@H](c2ccc(Cl)c(Cl)c2)C1 has what half-life?
A. > 5 h

Q. Entry CN[C@H]1Cc2ccccc2[C@H](c2ccc(Cl)c(Cl)c2)C1 has what half-life?
A. > 5 h

Q. Entry CN[C@@H]1CCc2ccccc2[C@H]1c1ccc(Cl)c(Cl)c1 has what half-life?
A. 1.58 h

Q. Entry CN[C@H]1CC[C@@H](c2ccc(Cl)c(Cl)c2)c2ccccc21 has what half-life?
A. > 2 h

Q. Entry CN[C@@H]1Cc2ccccc2[C@H](c2ccc(Cl)c(Cl)c2)C1 has what half-life?
A. > 5 h
